# MEASUREMENT_TARGET: Voltage-gated inwardly rectifying potassium channel KCNH2 (Homo sapiens) (UniProt Q12809)
# Sequence (Q12809 whole entry, looked up): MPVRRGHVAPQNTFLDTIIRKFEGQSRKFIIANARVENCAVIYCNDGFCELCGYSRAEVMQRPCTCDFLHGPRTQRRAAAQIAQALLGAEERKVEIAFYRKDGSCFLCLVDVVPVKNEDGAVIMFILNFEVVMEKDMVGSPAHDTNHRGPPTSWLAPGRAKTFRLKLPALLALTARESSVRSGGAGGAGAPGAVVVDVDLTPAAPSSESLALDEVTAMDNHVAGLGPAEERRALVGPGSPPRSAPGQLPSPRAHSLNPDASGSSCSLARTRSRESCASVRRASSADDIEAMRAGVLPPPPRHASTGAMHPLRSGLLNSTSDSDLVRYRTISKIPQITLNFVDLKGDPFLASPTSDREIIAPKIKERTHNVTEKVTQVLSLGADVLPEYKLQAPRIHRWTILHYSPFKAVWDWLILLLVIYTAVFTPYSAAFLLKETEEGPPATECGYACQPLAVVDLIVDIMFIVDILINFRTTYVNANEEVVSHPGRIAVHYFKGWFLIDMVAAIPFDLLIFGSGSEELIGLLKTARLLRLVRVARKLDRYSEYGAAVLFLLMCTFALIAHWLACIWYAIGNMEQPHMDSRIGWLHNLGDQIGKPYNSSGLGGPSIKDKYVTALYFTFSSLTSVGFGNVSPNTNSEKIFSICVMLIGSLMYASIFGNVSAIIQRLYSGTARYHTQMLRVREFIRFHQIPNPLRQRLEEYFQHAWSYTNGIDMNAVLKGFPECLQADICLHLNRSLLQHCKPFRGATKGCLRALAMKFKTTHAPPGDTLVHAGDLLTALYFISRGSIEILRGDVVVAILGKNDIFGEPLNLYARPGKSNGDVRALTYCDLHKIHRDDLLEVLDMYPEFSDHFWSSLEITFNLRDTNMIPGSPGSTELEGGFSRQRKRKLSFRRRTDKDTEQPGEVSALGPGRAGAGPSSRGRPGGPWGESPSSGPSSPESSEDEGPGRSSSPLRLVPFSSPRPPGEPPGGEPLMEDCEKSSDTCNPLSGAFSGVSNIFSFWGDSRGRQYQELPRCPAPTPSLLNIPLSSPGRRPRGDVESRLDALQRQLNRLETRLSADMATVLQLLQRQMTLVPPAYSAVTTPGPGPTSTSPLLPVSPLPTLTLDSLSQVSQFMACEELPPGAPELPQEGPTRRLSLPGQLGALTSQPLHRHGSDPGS
# PROCEDURE_SUMMARY: hERG protection against dofetilide inhibition, confirmation, cell-based, thallium flux, duplicate retest, dofetilide IC70 (AID 1835)
# CONDITIONS_USED: hERG cell line, FluxOR thallium flux, dofetilide-blocked; at 10 µM; active compounds read high
Screen size: about 2,400 compounds; about 750 (31%) were called active. Some of the results follow.
Measured activity increase over dofetilide control, less the hit threshold values are reported for all entries that follow.
The answer is to be given in %; state only the numeric part.

Some molecules with known activity increase over dofetilide control, less the hit threshold results, for comparison:
// query Give its activity increase over dofetilide control, less the hit threshold value. Item: CC(C)OC(=O)C1CC(C)(O)C(=O)C(C(=O)OC(C)C)C1c1ccc([N+](=O)[O-])cc1 (stereo unspecified)
// result -22

// query Next: CC(/C=C1\SC(=S)N(c2ccc(C(=O)O)cc2)C1=O)=C\c1ccccc1
// result -15

---
// query Given Cc1ccc(O)c(Sc2cc(C)ccc2O)c1 , state its recorded activity increase over dofetilide control, less the hit threshold.
// result -34

// query Another molecule to look at: NS(=O)(=O)c1ccc(Sc2ccc3c(c2)CCC3)nc1
// result -2

// query Then what about the molecule CCC(C)n1c(=S)[nH]c2ccccc2c1=O (stereo unspecified) ?
// result 14

// query Queued: CCC1(c2ccccc2)NC(=S)N(c2ccc(C)cc2)N1 (stereo unspecified)
// result 113

----------
# MEASUREMENT_TARGET: Voltage-gated inwardly rectifying potassium channel KCNH2 (Homo sapiens)
# PROCEDURE_SUMMARY: hERG protection against dofetilide inhibition, confirmation, cell-based, thallium flux, duplicate retest, dofetilide IC70 (AID 1835)
# CONDITIONS_USED: hERG cell line, FluxOR thallium flux, dofetilide-blocked; at 10 µM; active compounds read high
The whole screen tested about 2,400 compounds, of which about 750 (31%) were called active. The list shows a part of the results.
Respond with yes for activity increase over dofetilide control, less the hit threshold values of -10% and above, no for values below.

A selection of reference data follows.
// query Exam item: decide whether the reported activity increase over dofetilide control, less the hit threshold for Cn1nnnc1Sc1ncnc2scc(-c3ccc(F)cc3)c12 is at least -10%.
// result no

// query Continue with CCOc1ccccc1C(=O)NC1CC2CCCC(C1)N2Cc1nnnn1Cc1ccco1 (configuration not stated)
// result no

// query Repeat with O=C(c1cc2c(s1)-c1ccccc1OC2)N1CCCC1
// result yes

// query Please do the same for CCCCNC(=O)CC(NS(=O)(=O)c1ccc(C)cc1)c1ccco1 (configuration not stated) as well.
// result no

// query And for CCCc1nnc(NC(=O)CN2CCOCC2)s1 ?
// result no

// query Another: COc1cc(CNn2nnnc2N)ccc1OCC(=O)NC(C)(C)C
// result no

// query Also need Cc1ccc(C(C)C)c(OCc2n[nH]c(=S)o2)c1 , thanks.
// result yes

// query Do the same for COc1ccc(/C=N/NC(=O)c2ccncc2)cc1CN1CCCc2ccccc21 please
// result yes

Next:
// query Exam item: decide whether the reported activity increase over dofetilide control, less the hit threshold for Cc1noc(C)c1-c1nnc(-c2ccc(C(F)(F)F)cc2)o1 is at least -10%.
// result no

// query Continue with Cc1cc(C(F)(F)F)n(-c2ccc(N)cc2)n1
// result yes

// query Please do the same for NC(=O)C1CCN(C(=O)c2cc3c(s2)CCCC3)CC1 as well.
// result yes

// query Another: C=CCn1c(-c2cc(-c3ccc(C)cc3)nc3ccccc23)n[nH]c1=S
// result no
